Assay: parallel artificial membrane permeability assay
Type: in vitro ADME
Conditions: 100 μM, phosphate buffer pH 6.4, 17 h, 37 °C, 150 rpm, triplicates
Attribute: PAMPA −LogPe
Answer as a number with no unit attached.

CC(C)C[C@@H]1NC(=O)[C@H](C)NC(=O)[C@H](Cc2ccccc2)N(C)Cc2ccc([nH]2)CNC1=O [14e]	5.11

Query :: // returns reported PAMPA −LogPe for input CC(C)C[C@@H]1NC(=O)[C@H](C)NC(=O)[C@H](Cc2ccccc2)NCc2ccc([nH]2)CNC1=O [14a]
Result :: 7.72

Query :: What does the data say about its PAMPA −LogPe? Entry: CC(C)C[C@@H]1NC(=O)[C@H](C)N(C)C(=O)[C@H](Cc2ccccc2)NCc2ccc(n2C)CNC1=O [15d]
Result :: 6.30

Query :: Value lookup for PAMPA −LogPe; key = CC(C)C[C@H]1C(=O)NCc2ccc([nH]2)CN[C@@H](Cc2ccccc2)C(=O)N[C@@H](C)C(=O)N1C [14c]
Result :: 5.12

Query :: Value lookup for PAMPA −LogPe; key = CC(C)C[C@@H]1NC(=O)CN(C)C(=O)[C@H](Cc2ccccc2)NCc2cc(c[nH]2)CNC1=O [16b]
Result :: 6.76

Query :: Fill in the blank: the reported PAMPA −LogPe of CC(C)C[C@@H]1NC(=O)[C@H](C)N(C)C(=O)[C@H](Cc2ccccc2)NCc2cc(c[nH]2)CNC1=O [16d] is ____.
Result :: 7.53

Query :: Look up PAMPA −LogPe for this compound: CC(C)C[C@@H]1NC(=O)CN(C)C(=O)[C@H](Cc2ccccc2)NCc2ccc(n2C)CNC1=O [15b]
Result :: 5.93

Query :: Using the record for CC(C)C[C@@H]1NC(=O)[C@H](C)N(C)C(=O)[C@H](Cc2ccccc2)NCc2cc(cn2C)CNC1=O [17d] , report its PAMPA −LogPe.
Result :: 6.61

Query :: Data request, read-out PAMPA −LogPe, for CC(C)C[C@@H]1NC(=O)[C@H](C)N(C)C(=O)[C@H](Cc2ccccc2)NCc2ccc([nH]2)CNC1=O [14d]
Result :: 5.01
